- target: JAK3 (Homo sapiens, UniProt P52333)
- Sequence (P52333 1-1124): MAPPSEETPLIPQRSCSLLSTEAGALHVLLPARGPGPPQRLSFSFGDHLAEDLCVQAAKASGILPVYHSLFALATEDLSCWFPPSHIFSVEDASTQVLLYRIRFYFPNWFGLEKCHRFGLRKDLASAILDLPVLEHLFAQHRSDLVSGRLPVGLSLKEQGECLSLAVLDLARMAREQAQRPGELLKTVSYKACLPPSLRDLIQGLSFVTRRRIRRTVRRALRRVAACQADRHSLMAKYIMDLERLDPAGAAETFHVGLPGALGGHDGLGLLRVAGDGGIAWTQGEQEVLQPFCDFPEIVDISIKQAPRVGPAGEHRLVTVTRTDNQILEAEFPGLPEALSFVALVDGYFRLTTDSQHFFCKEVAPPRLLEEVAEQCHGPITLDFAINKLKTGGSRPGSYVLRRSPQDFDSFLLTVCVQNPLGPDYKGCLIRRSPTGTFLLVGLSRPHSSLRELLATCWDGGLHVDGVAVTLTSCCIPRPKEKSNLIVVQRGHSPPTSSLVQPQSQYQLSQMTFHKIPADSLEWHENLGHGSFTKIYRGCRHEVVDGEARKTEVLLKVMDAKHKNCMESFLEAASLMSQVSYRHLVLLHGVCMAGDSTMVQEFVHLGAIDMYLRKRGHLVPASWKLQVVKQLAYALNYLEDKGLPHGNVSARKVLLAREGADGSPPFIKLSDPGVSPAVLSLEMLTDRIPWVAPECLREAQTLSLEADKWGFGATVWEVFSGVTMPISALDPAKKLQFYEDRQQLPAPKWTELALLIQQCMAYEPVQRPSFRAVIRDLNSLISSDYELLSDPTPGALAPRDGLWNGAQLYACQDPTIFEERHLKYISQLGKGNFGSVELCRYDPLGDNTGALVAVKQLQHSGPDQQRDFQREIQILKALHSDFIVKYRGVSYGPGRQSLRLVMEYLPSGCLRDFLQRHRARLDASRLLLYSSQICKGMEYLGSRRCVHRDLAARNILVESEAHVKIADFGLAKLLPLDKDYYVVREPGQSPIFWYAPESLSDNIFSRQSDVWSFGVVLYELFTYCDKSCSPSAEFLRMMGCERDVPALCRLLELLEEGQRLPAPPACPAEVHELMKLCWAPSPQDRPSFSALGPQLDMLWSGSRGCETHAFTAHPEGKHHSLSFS
pKi: −log10 of the molar value.
Catalogue of pKi values

Here is how some compounds turned out for pKi.
C=CCN(C(=O)c1cc(-c2ncnc3[nH]ccc23)c[nH]1)C(C)c1ccccc1 (centres unmarked)	> 7.00
CC(C)CN(CC(C)C)C(=O)c1cc(-c2ncnc3[nH]ccc23)c[nH]1	6.30 to 7.00
CC(C(=O)N(C)C)n1cc(-c2ncnc3[nH]ccc23)cn1 (centres unmarked)	5.30 to 6.30

Inquiry: Report the value of pKi obtained on JAK3 (Homo sapiens, UniProt P52333) for `O=C(c1ccc(-c2ncnc3[nH]ccc23)o1)N(CC1CCC1)CC(F)(F)F` .
Reply text: > 7.00

Inquiry: Report the value of pKi obtained on JAK3 (Homo sapiens, UniProt P52333) for `O=C(NCC(F)F)c1cc(-c2ncnc3[nH]ccc23)c[nH]1` .
Reply text: > 7.00

Data origin: patent US20090227607A1
